Assayed System: T1, GFP-9S library array, motif 4 ND N98K;D124R (synthetic construct, N98K;D124R)
T1 chain: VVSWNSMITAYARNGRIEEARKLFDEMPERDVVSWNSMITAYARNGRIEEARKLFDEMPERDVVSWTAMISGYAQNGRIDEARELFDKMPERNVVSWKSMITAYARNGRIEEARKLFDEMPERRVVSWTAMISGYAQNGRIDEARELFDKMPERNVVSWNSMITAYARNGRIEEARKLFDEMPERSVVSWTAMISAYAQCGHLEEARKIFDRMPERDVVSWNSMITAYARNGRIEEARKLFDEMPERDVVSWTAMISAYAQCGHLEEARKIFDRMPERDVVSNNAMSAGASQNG
Assay Remarks: high-throughput RNA pulldown from lysate on Ni-NTA beads; HRP: 50 mM Tris pH 8, 150 mM NaCl, 1 mM beta-mercaptoethanol, 50 ug/ml BSA, 3 ug/ml yeast RNA, 0.5% heparin; ITC and FP: Tris pH 8, 200 mM KCl, 5% glycerol; MST: 50 mM Tris pH 8, 200 mM NaCl, 1 mM DTT, BSA, heparin, 0.05% Tween 20
Condition Notes: tags: N-terminal His-eGFP; label: 5' Cy5
Measured Endpoint: pKd
Just the number, please; pKd means minus log10 of the concentration in mol/L.

AUUACACGUGA (ssRNA) [Cy5-rpoA] | 7.37

Let's switch to this binder now.
pKd for AUUAGACGUGA (ssRNA) [Cy5-rpoA-G] is 7.26
